- Test system: 885512-296-R-J2-PDC complex spheroid viability;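 further: spheroids exposed to agents for 7 days before viability read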
- assay_summary: Anticancer human tumor 885512-296-R-J2-PDC patient-derived breast carcinoma cell line growth inhibition
- applied_conditions: second compound 3.16 µM; first compound 0.0316 µM; hits give low values
Define the label as y when viability, T/C is strictly less than 30% and as n in all remaining cases.

[Q] # strict comparison: is reported viability, T/C < 30%? input = CC1(C)CCC(CN2CCN(c3ccc(C(=O)NS(=O)(=O)c4ccc(NCC5CCOCC5)c([N+](=O)[O-])c4)c(Oc4cnc5[nH]ccc5c4)c3)CC2)=C(c2ccc(Cl)cc2)C1 + NC1CCC(NC2CC2c2ccccc2)CC1
[A] n

[Q] Also check CC(C)CC(NC(=O)C(Cc1ccccc1)NC(=O)c1cnccn1)B(O)O (stereo unspecified) + NC1CCC(NC2CC2c2ccccc2)CC1
[A] y

[Q] Also check O=C(C=Cn1cnc(-c2cc(C(F)(F)F)cc(C(F)(F)F)c2)n1)NNc1cnccn1 + NC1CCC(NC2CC2c2ccccc2)CC1
[A] y

[Q] Also check CC1COCCN1c1cc(C2(S(C)(=N)=O)CC2)nc(-c2ccnc3[nH]ccc23)n1 (stereo unspecified) + NC1CCC(NC2CC2c2ccccc2)CC1
[A] n

[Q] Also check O=C(c1cc(Cc2n[nH]c(=O)c3ccccc23)ccc1F)N1CCN(C(=O)C2CC2)CC1 + NC1CCC(NC2CC2c2ccccc2)CC1
[A] n

[Q] Also check COc1cc(Nc2ncc3c(n2)-c2ccc(Cl)cc2C(c2c(F)cccc2OC)=NC3)ccc1C(=O)O + NC1CCC(NC2CC2c2ccccc2)CC1
[A] n
